As a worked illustration, we turn to pKi data collected for 5-hydroxytryptamine receptor 2A (Homo sapiens).
Expect pKi as a plain number equal to -log10 of the molar concentration.

// below: answered compounds
C[C@H](N)CN1CCc2ccc3c(c21)CCCO3 6.40
CCSc1ccc2c(c1)N(C[C@H](C)N)CC2 6.74
C[C@H](N)CN1CCc2ccc(Cl)cc21 6.44
C[C@H](N)CN1CCc2cc(F)c(I)cc21 6.86
CSc1ccc2c(c1)N(C[C@H](C)N)CC2 6.77

Form entry - test system: 5-hydroxytryptamine receptor 2A (Homo sapiens); read-out: pKi; compound: CCSc1cc2c(cc1F)CCN2C[C@H](C)N
Sequence (P28223 whole entry): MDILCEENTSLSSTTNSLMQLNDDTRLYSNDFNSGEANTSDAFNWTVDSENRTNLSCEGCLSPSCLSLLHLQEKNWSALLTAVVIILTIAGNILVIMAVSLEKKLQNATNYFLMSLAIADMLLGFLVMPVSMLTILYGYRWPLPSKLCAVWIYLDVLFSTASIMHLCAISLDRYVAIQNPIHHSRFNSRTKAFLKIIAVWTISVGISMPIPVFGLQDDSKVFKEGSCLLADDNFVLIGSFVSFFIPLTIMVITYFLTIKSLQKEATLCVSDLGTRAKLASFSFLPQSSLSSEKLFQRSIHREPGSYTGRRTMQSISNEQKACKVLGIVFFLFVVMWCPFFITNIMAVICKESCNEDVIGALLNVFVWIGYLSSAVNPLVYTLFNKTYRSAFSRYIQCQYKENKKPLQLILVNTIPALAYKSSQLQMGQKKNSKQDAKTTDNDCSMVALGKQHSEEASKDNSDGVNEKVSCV
7.24

Follow-up entry: C[C@H](N)CN1CCc2ccc3c(c21)CCO3
6.95

Now the same for C[C@H](N)CN1CCc2cc(F)c(Cl)cc21
6.78

# repeat for C[C@H](N)CN1CCc2ccc(Br)cc21
6.45

* * *

The compounds listed here are annotated with their Relative efficacy.
Molecular target: 5-hydroxytryptamine receptor 2A (Homo sapiens)
Experiment: Relative efficacy against human 5-hydroxytryptamine 2A receptor expressed in CHO cells using fluorometric imaging plate reader relative to 10 uM 5-HT
Type: functional, cell-based
Expressed in %, but write only the number.

CCSc1ccc2c(c1)N(C[C@H](C)N)CC2 71
C[C@H](N)CN1CCc2ccc3c(c21)CCCO3 71
C[C@H](N)CN1CCc2cc(F)c(C(F)(F)F)cc21 45
C[C@H](N)CN1CCc2ccc(Br)cc21 54

Turning to the following compound.
Which Relative efficacy is listed for C[C@H](N)CN1CCc2ccc(Cl)cc21 ?
55

* * *

Biological target: 5-hydroxytryptamine receptor 2B (Homo sapiens)
Assay: Affinity for human 5-hydroxytryptamine 2B receptor expressed in mammalian cell line
measurement_label: Ki (nM)
Report only the number, with the unit nM understood.

C[C@H](N)CN1CCc2cc(F)c(C(F)(F)F)cc21 88
CSc1ccc2c(c1)N(C[C@H](C)N)CC2 89
CCSc1cc2c(cc1F)CCN2C[C@H](C)N 62
C[C@H](N)CN1CCc2ccc(Br)cc21 46

# get_value(readout='Ki', item= C[C@H](N)CN1CCc2ccc3c(c21)CCO3 )
49

Another compound to check: C[C@H](N)CN1CCc2ccc3c(c21)CCCO3
355

And for C[C@H](N)CN1CCc2ccc(Cl)cc21 ?
54

Moving on to the next compound: C[C@H](N)CN1CCc2cc(F)c(Cl)cc21
31

Would you kindly repeat that for C[C@H](N)Cn1ccc2cc(F)c(Cl)cc21 ?
5.1

Please do the same for CSc1cc2c(cc1F)CCN2C[C@H](C)N as well.
21

Ok, now C[C@H](N)CN1CCc2cc(F)c(I)cc21
38

// same read-out, input: CCSc1ccc2c(c1)N(C[C@H](C)N)CC2
189

* * *

// reported EC50 per item
Biological target: 5-hydroxytryptamine receptor 2A (Homo sapiens)
Test: Functional activity against human 5-hydroxytryptamine 2A receptor expressed in CHO cells using fluorometric imaging plate reader
Write down the numeric answer in nM and omit the unit.

CSc1ccc2c(c1)N(C[C@H](C)N)CC2 164

What value of measured EC50 is listed for C[C@H](N)CN1CCc2ccc(Br)cc21 ?
719

Now consider C[C@H](N)CN1CCc2ccc3c(c21)CCO3 and answer again.
62

Now the compound C[C@H](N)CN1CCc2cc(F)c(I)cc21
432

Also check C[C@H](N)CN1CCc2ccc(Cl)cc21
602

Same question, CCSc1cc2c(cc1F)CCN2C[C@H](C)N this time
181

Moving on to C[C@H](N)CN1CCc2cc(F)c(C(F)(F)F)cc21
1060

Further, for CSc1cc2c(cc1F)CCN2C[C@H](C)N ?
76

Another: C[C@H](N)CN1CCc2cc(F)c(Cl)cc21
367

Also check C[C@H](N)CN1CCc2ccc3c(c21)CCCO3
125

What about this compound? CCSc1ccc2c(c1)N(C[C@H](C)N)CC2
378

* * *

Target: UniProt P28223
Experiment: Relative efficacy against human 5-hydroxytryptamine 2A receptor expressed in CHO cells using fluorometric imaging plate reader relative to 10 uM 5-HT
Assay type: functional, cell-based
measurement_label: Relative efficacy (%)
Number in %, nothing else.

Worked cases, answers included:
C[C@H](N)CN1CCc2cc(F)c(I)cc21 54
CCSc1cc2c(cc1F)CCN2C[C@H](C)N 80
CSc1cc2c(cc1F)CCN2C[C@H](C)N 87
C[C@H](N)CN1CCc2ccc3c(c21)CCO3 81
CSc1ccc2c(c1)N(C[C@H](C)N)CC2 72
C[C@H](N)CN1CCc2cc(F)c(Cl)cc21 66

Field: next compound
I'd like to know its Relative efficacy. The compound in question is C[C@H](N)Cn1ccc2cc(F)c(Cl)cc21
72

* * *

Biological target: 5-hydroxytryptamine receptor 2B (Homo sapiens, UniProt P41595)
Sequence (P41595 whole entry): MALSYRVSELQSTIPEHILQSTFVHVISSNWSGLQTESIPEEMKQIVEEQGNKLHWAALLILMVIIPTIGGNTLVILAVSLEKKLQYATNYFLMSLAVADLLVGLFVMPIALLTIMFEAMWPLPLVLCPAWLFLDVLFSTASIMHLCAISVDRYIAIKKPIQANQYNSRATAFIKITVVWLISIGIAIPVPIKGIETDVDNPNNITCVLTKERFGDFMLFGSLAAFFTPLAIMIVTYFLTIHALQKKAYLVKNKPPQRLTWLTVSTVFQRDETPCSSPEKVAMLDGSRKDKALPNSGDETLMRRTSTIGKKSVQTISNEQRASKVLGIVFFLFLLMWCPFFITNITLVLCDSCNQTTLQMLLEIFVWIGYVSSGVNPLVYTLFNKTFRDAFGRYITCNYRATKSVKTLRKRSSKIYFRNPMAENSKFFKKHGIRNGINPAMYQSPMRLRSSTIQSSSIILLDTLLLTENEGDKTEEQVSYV
Experiment: Relative efficacy against human 5-hydroxytryptamine 2B receptor expressed in CHO cells using fluorometric imaging plate reader relative to 10 uM 5-HT
Type: functional, cell-based
measurement_label: Relative efficacy (%)
Kindly provide the numeric value in % only, without the unit symbol.

CCSc1cc2c(cc1F)CCN2C[C@H](C)N 66
C[C@H](N)CN1CCc2ccc3c(c21)CCO3 74
C[C@H](N)CN1CCc2cc(F)c(I)cc21 71
C[C@H](N)CN1CCc2ccc3c(c21)CCCO3 67

GET /values?readout=Relative efficacy&item= C[C@H](N)CN1CCc2cc(F)c(C(F)(F)F)cc21
86

Check CSc1cc2c(cc1F)CCN2C[C@H](C)N too.
72

What do you have for C[C@H](N)CN1CCc2ccc(Cl)cc21 ?
76

* * *

Target: 5-hydroxytryptamine receptor 2B (Homo sapiens, UniProt P41595)
Assay: Functional activity against human 5-hydroxytryptamine 2B receptor expressed in CHO cells using fluorometric imaging plate reader
Format: cell-based
measurement_label: EC50 (nM)
Number in nM, nothing else.

Worked examples follow.
CSc1cc2c(cc1F)CCN2C[C@H](C)N 4.1
C[C@H](N)Cn1ccc2cc(F)c(Cl)cc21 4.3
C[C@H](N)CN1CCc2cc(F)c(I)cc21 22
C[C@H](N)CN1CCc2cc(F)c(C(F)(F)F)cc21 49
C[C@H](N)CN1CCc2ccc(Br)cc21 11
C[C@H](N)CN1CCc2cc(F)c(Cl)cc21 7.3
CCSc1cc2c(cc1F)CCN2C[C@H](C)N 31
C[C@H](N)CN1CCc2ccc(Cl)cc21 6.5
C[C@H](N)CN1CCc2ccc3c(c21)CCCO3 36
C[C@H](N)CN1CCc2ccc3c(c21)CCO3 3

Please provide the recorded EC50 for CSc1ccc2c(c1)N(C[C@H](C)N)CC2 , tested on 5-hydroxytryptamine receptor 2B (Homo sapiens, UniProt P41595).
10

Continue with CCSc1ccc2c(c1)N(C[C@H](C)N)CC2
72

* * *

Tested on: Rattus norvegicus
Assay: Ability of compound to decrease food intake in rats after oral administration
Assay type: functional
Details: read-out: MED
Each entry below carries its reported minimal effective dose.

C[C@H](N)CN1CCc2ccc(Br)cc21 30 mg/kg
Clc1cccc(N2CCNCC2)c1 10 mg/kg
CSc1cc2c(cc1F)CCN2C[C@H](C)N 3 mg/kg

Attention now turns to another entry.
May I ask what minimal effective dose has been recorded for C[C@H](N)CN1CCc2ccc3c(c21)CCO3 ?
1 mg/kg

* * *

Listed below: Relative efficacy values for each entry.
Target: 5-hydroxytryptamine receptor 2B (Homo sapiens, UniProt P41595)
Assay: Relative efficacy against human 5-hydroxytryptamine 2B receptor expressed in CHO cells using fluorometric imaging plate reader relative to 10 uM 5-HT
Assay type: functional, cell-based
The reply should contain only the number, in %.

Check out these entries, answers already filled in.
C[C@H](N)CN1CCc2ccc(Br)cc21 78
C[C@H](N)Cn1ccc2cc(F)c(Cl)cc21 71
CCSc1ccc2c(c1)N(C[C@H](C)N)CC2 67
C[C@H](N)CN1CCc2cc(F)c(Cl)cc21 77

Could you tell me which Relative efficacy is on file for CSc1ccc2c(c1)N(C[C@H](C)N)CC2 ?
78

* * *

5-hydroxytryptamine receptor 2C (Homo sapiens) measurements of pKi, listed per entry.
Sequence (P28335 whole entry): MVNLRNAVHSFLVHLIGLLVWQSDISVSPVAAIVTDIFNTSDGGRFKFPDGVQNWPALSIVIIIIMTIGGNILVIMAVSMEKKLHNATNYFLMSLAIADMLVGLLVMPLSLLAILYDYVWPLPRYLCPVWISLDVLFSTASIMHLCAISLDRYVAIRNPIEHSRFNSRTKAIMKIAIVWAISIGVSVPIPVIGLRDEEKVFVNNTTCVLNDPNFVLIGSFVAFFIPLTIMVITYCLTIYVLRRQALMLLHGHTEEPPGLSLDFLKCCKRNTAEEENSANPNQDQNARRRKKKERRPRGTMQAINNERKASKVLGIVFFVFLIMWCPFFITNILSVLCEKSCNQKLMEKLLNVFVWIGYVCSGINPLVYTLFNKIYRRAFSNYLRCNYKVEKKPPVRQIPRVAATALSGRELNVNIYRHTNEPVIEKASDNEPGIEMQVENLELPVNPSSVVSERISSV
To interpret pKi, take it as minus log10 of a concentration measured in moles per litre.

Solved entries (count: 3):
C[C@H](N)CN1CCc2cc(F)c(C(F)(F)F)cc21 7.59
C[C@H](N)CN1CCc2cc(F)c(I)cc21 7.77
C[C@H](N)CN1CCc2ccc3c(c21)CCCO3 7.42

What measured pKi is associated with C[C@H](N)CN1CCc2ccc(Br)cc21 on 5-hydroxytryptamine receptor 2C (Homo sapiens)?
7.62

# repeat for C[C@H](N)CN1CCc2ccc(Cl)cc21
7.89

Would you mind doing C[C@H](N)CN1CCc2cc(F)c(Cl)cc21 as well?
7.85

Would you mind doing C[C@H](N)Cn1ccc2cc(F)c(Cl)cc21 as well?
8.64
